Record form. Attribute: SGF (pH 1.2) % remaining 24 h. Fill in for each entry.
- assay.comment: Stability in aqueous media (FaSSIF, SGF, PBS)
- Assay type: physicochemical
- condition.info: SGF pH 1.2, 37° C., 24 h
Express the result in % but write the number alone.

In: Bench note: what SGF (pH 1.2) % remaining 24 h did CCOC(=O)OCOC(=O)c1ccc2c(c1)nc(OCCOCCCCNCc1cc(F)c(OC(F)(F)F)c(F)c1)c1ccncc12 [Example 13] show?
Out: 21.5

In: Bench note: what SGF (pH 1.2) % remaining 24 h did CC(C)(C)OC(=O)OCOC(=O)c1ccc2c(c1)nc(OCCOCCCCNCc1cc(F)c(OC(F)(F)F)c(F)c1)c1ccncc12 [Example 15] show?
Out: 1.8

In: Bench note: what SGF (pH 1.2) % remaining 24 h did COC(=O)OCOC(=O)c1ccc2c(c1)nc(OCCOCCCCNCc1cc(F)c(OC(F)(F)F)c(F)c1)c1ccncc12 [Example 11] show?
Out: 21.5

In: Bench note: what SGF (pH 1.2) % remaining 24 h did Cc1oc(=O)oc1COC(=O)c1ccc2c(c1)nc(OCCOCCCCNCc1cc(F)c(OC(F)(F)F)c(F)c1)c1ccncc12 [Example 7] show?
Out: 26.9

In: Bench note: what SGF (pH 1.2) % remaining 24 h did CC(C)(C)C(=O)OCOC(=O)c1ccc2c(c1)nc(OCCOCCCCNCc1cc(F)c(OC(F)(F)F)c(F)c1)c1ccncc12 [Example 6] show?
Out: 20.0

In: Bench note: what SGF (pH 1.2) % remaining 24 h did O=C(OCOC(=O)c1ccc2c(c1)nc(OCCOCCCCNCc1cc(F)c(OC(F)(F)F)c(F)c1)c1ccncc12)OC1CCOCC1 [Example 16] show?
Out: 19.4

In: Bench note: what SGF (pH 1.2) % remaining 24 h did CCC(=O)OCOC(=O)c1ccc2c(c1)nc(OCCOCCCCNCc1cc(F)c(OC(F)(F)F)c(F)c1)c1ccncc12 [Example 12] show?
Out: 10.1

In: Bench note: what SGF (pH 1.2) % remaining 24 h did CC(C)OC(=O)c1ccc2c(c1)nc(OCCOCCCCNCc1cc(F)c(OC(F)(F)F)c(F)c1)c1ccncc12 [Example 2] show?
Out: 19.6

----------
- assay.comment: in vitro
- Format: in vitro ADME
- condition.info: rat intestinal microsomes, NADPH, 37° C.
observation.type: CIint(mic) (µL/min/mg)
Express the result in µL/min/mg but write the number alone.

In: Bench note: what CIint(mic) did CC(C)(C)OC(=O)c1ccc2c(c1)nc(OCCOCCCCNCc1cc(F)c(OC(F)(F)F)c(F)c1)c1ccncc12 show?
Out: 78.9

In: Bench note: what CIint(mic) did CC(=O)OCOC(=O)c1ccc2c(c1)nc(OCCOCCCCNCc1cc(F)c(OC(F)(F)F)c(F)c1)c1ccncc12 show?
Out: 61.8

In: Bench note: what CIint(mic) did CCC(=O)OCOC(=O)c1ccc2c(c1)nc(OCCOCCCCNCc1cc(F)c(OC(F)(F)F)c(F)c1)c1ccncc12 show?
Out: 90.8

In: Bench note: what CIint(mic) did CCOC(=O)OCOC(=O)c1ccc2c(c1)nc(OCCOCCCCNCc1cc(F)c(OC(F)(F)F)c(F)c1)c1ccncc12 show?
Out: 126.2

In: Bench note: what CIint(mic) did CCOC(=O)c1ccc2c(c1)nc(OCCOCCCCNCc1cc(F)c(OC(F)(F)F)c(F)c1)c1ccncc12 show?
Out: 37.6

In: Bench note: what CIint(mic) did CC(C)OC(=O)OCOC(=O)c1ccc2c(c1)nc(OCCOCCCCNCc1cc(F)c(OC(F)(F)F)c(F)c1)c1ccncc12 show?
Out: 1604.8
